biological target: 3',5'-cyclic-AMP phosphodiesterase 4B (Homo sapiens); assay: qHTS Assay for Inhibitors of PDE-IV (AID 607); settings: HEK293 ACTOne CNG channel cells, membrane potential fluorescence; series mostly up to 22.9 µM; also: potency is read from the fitted curve at half-maximal effect
Records with an inconclusive call do not appear. The source made the active and inactive calls. Calls follow the shape of the dose curve; as a rule, active = well fitted activation curve with a large enough effect in the main read-out, with a control signal flat (not every such curve was filed as active); inconclusive = small, poorly fitted or top-dose-only effect, or effect the other way, or a change in a side signal; inactive = flat fitted curve, though single readings scatter.
property measured: Potency

>  <chemical string>
NCCCC(=O)O

>  <target of assay>
3',5'-cyclic-AMP phosphodiesterase 4B (Homo sapiens)

>  <property measured>
Potency

>  <measured result>
inactive

$$$$
>  <chemical string>
CC(=O)C1=C(O)C=C2Oc3c(C(C)=O)c(O)c(C)c(O)c3[C@]2(C)C1=O

>  <target of assay>
3',5'-cyclic-AMP phosphodiesterase 4B (Homo sapiens)

>  <property measured>
Potency

>  <measured result>
inactive

$$$$
>  <chemical string>
Cc1ccc(OC[C@H](O)[C@H](C)NC(C)C)c2c1CCC2

>  <target of assay>
3',5'-cyclic-AMP phosphodiesterase 4B (Homo sapiens)

>  <property measured>
Potency

>  <measured result>
inactive

$$$$
>  <chemical string>
COc1cc(C[C@H]2C(=O)OC[C@@H]2Cc2ccc(OC)c(OC)c2)ccc1O

>  <target of assay>
3',5'-cyclic-AMP phosphodiesterase 4B (Homo sapiens)

>  <property measured>
Potency

>  <measured result>
3.79 µM (active)

$$$$

With those in mind, consider the next compound.
(Q) Which Potency is reported for this compound? `COc1ccc2[nH]c(=O)c3c(c2c1)OC(C)(C)C=C3`
(A) inactive

* * *

Assay: P-glycoprotein substrates identified in KB-8-5-11 adenocarcinoma cell line, qHTS therapeutic library screen (AID 1346987); also: nearly all actives have a fitted effect of over 65% in size
Conditions: KB-8-5-11 (P-gp overexpressing) viability, CellTiter-Glo, 72 h; series mostly up to 44.5 µM
Description: The ATP-binding cassette transporters P-glycoprotein (P-gp) is known to limit brain penetration of many chemotherapy drugs. […] All cell lines were plated into 1536-well plates at 500 cells/well in 5 uL media. […] CellTiter-Glo reagent (Promega) was dispensed into the wells, incubated for 5 min and luminescence was read on a ViewLux instrument (Perkin-Elmer). […]
Records with an inconclusive call do not appear. Calls of active or inactive are those of the source. The call rests on the fitted dose curve; in most records, active means well fitted inhibition curve with a large enough effect; inconclusive means small, poorly fitted or top-dose-only effect; inactive means flat fitted curve, though single readings scatter.
In this exercise, the only acceptable responses are true (active), false (inactive)

Observe how each entry below is paired with its result.
>  <compound>
Cn1cc(-c2ccc(S(=O)(=O)n3ccc(/C=C/C(=O)Nc4ccccc4N)c3)cc2)cn1

>  <assigned class>
true

$$$$
>  <compound>
CC(=O)O[C@@H]1C2=C(O)C(=O)[C@](C)(OC(C)=O)C(=O)C2=CO[C@@]12O[C@@H](C)CC[C@H]2OC(C)=O

>  <assigned class>
false

$$$$
>  <compound>
CC#CCn1c(N2CCCC(N)C2)nc2c1c(=O)n(Cc1nc(C)c3ccccc3n1)c(=O)n2C (centres undefined)

>  <assigned class>
false

$$$$
>  <compound>
CC1(CO)CC2C(O)C3=C(CC(C)(O)C2C1)C(=O)OC3 (centres undefined)

>  <assigned class>
false

$$$$
>  <compound>
O=C(c1cc(Cc2n[nH]c(=O)c3ccccc23)ccc1F)N1CCCNCC1

>  <assigned class>
false

$$$$

Consider the record given below.
(Q) Fill in: this test's call for CC(C)=CCC/C(C)=C/COCC1OC(n2ccc(=O)[nH]c2=O)C(O)C1O (centres undefined) is ___
(A) false

* * *

test: qHTS to identify inhibitors of the type 1 interferon - major histocompatibility complex class I in skeletal muscle: primary screen against the NCATS Mechanism Interrogation Plate v5.0 (MIPE) Libary (AID 1347411); conditions: iHSKM cells + IFN-b, HiBiT-tagged MHC-I luminescence, 24 h; series mostly up to 45.8 µM; also: nearly all actives have a fitted effect of over 65% in size
Results filed as inconclusive are left out. Activity calls are given as the source filed them. The call rests on the fitted dose curve; in most records, active means well fitted inhibition curve with a large enough effect; inconclusive means small, poorly fitted or top-dose-only effect; inactive means no such curve, though single readings can be large or run the other way.
In this exercise, the only acceptable responses are active, inactive

>  <compound>
Cc1cc(C(=O)Nc2cc(Nc3ccc4c(/C=C/c5ccccn5)n[nH]c4c3)ccc2F)n(C)n1

>  <assigned class>
active

$$$$
>  <compound>
COc1cccc(OCCCN)c1-c1cc(Nc2cnc(C#N)cn2)n[nH]1

>  <assigned class>
active

$$$$
>  <compound>
Cn1cc(-c2ccc(F)c(C(F)(F)F)c2)nc1C1CCN(c2ncnc3[nH]ncc23)CC1

>  <assigned class>
inactive

$$$$
>  <compound>
Nc1nccc(-c2c(-c3ccc(F)cc3)ncn2C2CCCCC2)n1

>  <assigned class>
inactive

$$$$
>  <compound>
O=C1NC(=O)C(c2cnc3ccccn23)=C1c1cn2c3c(cc(F)cc13)CN(C(=O)N1CCCCC1)CC2

>  <assigned class>
active

$$$$

Consider the record given below.
(Q) Fill in: this test's call for `COc1ccc(-c2cnc3c(-c4cccc5ncccc45)cnn3c2)cc1` is ___
(A) inactive

* * *

system: Hek293T; assay: Primary qHTS to identify gynecologic anti-cancer compounds using libraries of approved drugs and bioactive compounds (AID 1345084); conditions: Gynecologic cancer cell panel viability, ATPlite luminescence, 48 h, control line for the selectivity index; series mostly up to 57.5 µM; also: nearly all actives have a fitted effect of over 55% in size
Results filed as inconclusive are left out. Calls of active or inactive are those of the source. The call rests on the fitted dose curve; in most records, active means well fitted cell-killing curve with a large enough effect; inconclusive means small, poorly fitted or top-dose-only effect, or effect the other way; inactive means flat fitted curve, though single readings scatter. *1 amine or outer side, *2 acyl side, *3 side chain or, on linkers, in order; H or OH if unused. Where a SMILES comes first, the peptide text is derived from it. Bridges are numbered along the chain shown (N, C = ends). [ ]: non-standard residue; d: D form. The star is where a group is joined. pTerphenylCO(4''-OnC5H11) = CCCCCOc1ccc(-c2ccc(-c3ccc(C(=O)*)cc3)cc2)cc1; Orn(4R-OH,5R-OH) = O=C([C@H](C[C@@H](O)[C@@H](O)N[*:3])N[*:1])[*:2]; hTyr(3S-OH,4S-OH) = N[C@H](C(=O)O)[C@H](O)[C@@H](O)c1ccc(O)cc1; Pro(3S-OH,4S-Me) = C[C@H]1CN[C@H](C(=O)O)[C@H]1O; Hyp = O=C(O)[C@@H]1C[C@@H](O)CN1
In this exercise, the only acceptable responses are class 1 for active, class 0 for inactive

>  <molecule>
CCN(CC)CCCCCCNc1cc(OC)cc2c(C)ccnc12

>  <assigned class>
class 0

$$$$
>  <molecule>
Fc1ccc(-n2cc(CCCCN3CCC4(CC3)OCc3ccccc34)c3ccccc32)cc1

>  <assigned class>
class 0

$$$$
>  <molecule>
CCCCCOc1ccc(-c2ccc(-c3ccc(C(=O)N[C@H]4C[C@@H](O)[C@@H](O)NC(=O)[C@@H]5[C@@H](O)[C@@H](C)CN5C(=O)[C@H]([C@@H](C)O)NC(=O)[C@H]([C@H](O)[C@@H](O)c5ccc(O)cc5)NC(=O)[C@@H]5C[C@@H](O)CN5C(=O)[C@H]([C@@H](C)O)NC4=O)cc3)cc2)cc1 ({pTerphenylCO(4''-OnC5H11)}-[Orn(4R-OH,5R-OH)]T[Hyp][hTyr(3S-OH,4S-OH)]T[Pro(3S-OH,4S-Me)]; lactam 1-C)

>  <assigned class>
class 0

$$$$

Consider the record given below.
(Q) Fill in: this test's call for `COc1ccc([C@H]2OC[C@H]3O[C@@H](O[C@H]4[C@@H]2NC[C@@H]4O)[C@H](O)[C@H]3O)cc1` is ___
(A) class 1

* * *

test: P-glycoprotein substrates identified in KB-8-5-11 adenocarcinoma cell line, qHTS therapeutic library screen (AID 1346987); conditions: KB-8-5-11 (P-gp overexpressing) viability, CellTiter-Glo, 72 h; series mostly up to 44.5 µM; also: nearly all actives have a fitted effect of over 65% in size
Results filed as inconclusive are left out. Calls of active or inactive are those of the source. Calls follow the shape of the dose curve; as a rule, active = well fitted inhibition curve with a large enough effect; inconclusive = small, poorly fitted or top-dose-only effect; inactive = flat fitted curve, though single readings scatter. Where a SMILES comes first, the peptide text is derived from it. Bridges are numbered along the chain shown (N, C = ends).
In this exercise, the only acceptable responses are Yes = active, No = inactive

>  <compound>
CCCCCCCCCCCCCCCC(=O)OCCC1CCN(CCCN2c3ccccc3Sc3ccc(S(=O)(=O)N(C)C)cc32)CC1

>  <assigned class>
No

$$$$
>  <compound>
CCC(C(C)O)n1ncn(-c2ccc(N3CCN(c4ccc(OCC5COC(Cn6cncn6)(c6ccc(F)cc6F)C5)cc4)CC3)cc2)c1=O (stereo not drawn)

>  <assigned class>
Yes

$$$$
>  <compound>
CCC/C=C/C=C/C1CC(O)C2(O)C(=O)OCC12 (stereo not drawn)

>  <assigned class>
No

$$$$
>  <compound>
Nc1nc2c(s1)CCN(Cc1ccc(Cl)cc1)CC2

>  <assigned class>
No

$$$$
>  <compound>
CCC(C)/C=C(C)/C=C/C1=CC2=CC(=O)C3(C)OC(C)(O)C(C(=O)OC)C3C2=CO1 (stereo not drawn)

>  <assigned class>
No

$$$$
>  <compound>
NCCCC[C@H](NC(=O)[C@@H]1CCCN1C(=O)[C@@H]1CSSC[C@H](NC(=O)CNC(=O)CNC(=O)CN)C(=O)N[C@@H](Cc2ccc(O)cc2)C(=O)N[C@@H](Cc2ccccc2)C(=O)N[C@@H](CCC(N)=O)C(=O)N[C@@H](CC(N)=O)C(=O)N1)C(=O)NCC(N)=O (H-GGGCYFQNCPKG-NH2; disulfide 4-9)

>  <assigned class>
No

$$$$

(Q) Fill in: this test's call for `Fc1ccc(-c2nc(C3CCNCC3)sc2-c2ccnc(NC3CC3)n2)cc1` is ___
(A) Yes

(Q) Fill in: this test's call for `C=C(C)[C@@H]1CC=C(COC(=O)NC(=O)c2ncn3c(=O)n(C)nnc23)CC1` is ___
(A) No

(Q) Fill in: this test's call for `COc1cc(OC)c2c(=O)[nH]c(-c3cc(C)c(OCCO)c(C)c3)nc2c1` is ___
(A) No
